- TGT: human recombinant USP30 (Homo sapiens)
- TEST_DETAILS: Ubiquitin-Rhodamine 110 Assay for USP30 Activity (USP30 biochemical assay)
- EXPERIMENTAL_CONTEXT: IC50 ranges; 0.4 nM enzyme, 25 nM Ub-Rh110, 30 min preincubation, test concentration 25 μM to 1.3 nM
Would you mind telling me the reported IC50 of each entry?

Worked set:
- MOLECULE: "N#Cc1cccc(-c2cnc(N3CCN4CCN(C#N)C[C@@H]4C3=O)s2)c1 (single isomer, unassigned)"
  MEASURED_VALUE: "< 100 nM"
- MOLECULE: "N#CN1CCN2CCN(c3ncc(-c4ccccc4)s3)C(=O)[C@H]2C1 (single isomer, unassigned) [Compound 1-14R]"
  MEASURED_VALUE: "< 100 nM"
- MOLECULE: "N#CN1CCN2CCN(c3ncc(C4CCCCC4)s3)C(=O)[C@@H]2C1 (single isomer, unassigned)"
  MEASURED_VALUE: "100 to 1000 nM"
- MOLECULE: "N#CN1CCN2CCN(c3ncc(-c4cccc(Cl)c4)cn3)C(=O)[C@H]2C1 (single isomer, unassigned)"
  MEASURED_VALUE: "1000 to 10000 nM"

Value sought for every listed molecule: IC50.
1. N#CN1CC[C@@H]2CN(c3ncc(C4CCCCC4)s3)C(=O)[C@@H]2C1 (single isomer, unassigned)
2. N#CN1CC[C@H]2CN(c3ncc(C4CCCCC4)s3)C(=O)[C@H]2C1 (single isomer, unassigned)
3. N#CN1CCN2CCN(c3ncc(-c4cccc(Cl)c4)s3)C(=O)[C@@H]2C1 (single isomer, unassigned)
4. N#CN1CCN2CCN(c3ncc(-c4cccc(CN5CCC5)c4)s3)C(=O)[C@H]2C1 (single isomer, unassigned) [Compound 1-115R]
5. N#CN1CCN2CCN(c3ncc(N4CCCC[C@H]4Cc4ccccc4)s3)C(=O)[C@@H]2C1 (single isomer, unassigned) [1-118S,S]
6. CC(C)(C)c1cnc(N2CCN3CCN(C#N)C[C@]3(C)C2=O)s1 (single isomer, unassigned) [Compound 1-15R]
7. N#CN1CC[C@H]2CCN(c3ncc(C4CCCCC4)s3)C(=O)[C@H]2C1 (single isomer, unassigned) [1-12S,R]

1000 to 10000 nM
10000 to 25000 nM
< 100 nM
1000 to 10000 nM
100 to 1000 nM
1000 to 10000 nM
1000 to 10000 nM

Value sought for every listed molecule: IC50.
1. N#Cc1cccc(-c2cnc(N3CCN4CCN(C#N)C[C@H]4C3=O)nc2)c1 (single isomer, unassigned)
2. N#Cc1cccc(-c2cnc(N3CCN4CCN(C#N)C[C@H]4C3=O)s2)c1 (single isomer, unassigned)

1: 1000 to 10000 nM; 2: < 100 nM

----------
Would you mind telling me the reported pIC50 of each entry?
- TGT: human recombinant USP30 (Homo sapiens, UniProt Q70CQ3)
- Sequence (Q70CQ3 1-517): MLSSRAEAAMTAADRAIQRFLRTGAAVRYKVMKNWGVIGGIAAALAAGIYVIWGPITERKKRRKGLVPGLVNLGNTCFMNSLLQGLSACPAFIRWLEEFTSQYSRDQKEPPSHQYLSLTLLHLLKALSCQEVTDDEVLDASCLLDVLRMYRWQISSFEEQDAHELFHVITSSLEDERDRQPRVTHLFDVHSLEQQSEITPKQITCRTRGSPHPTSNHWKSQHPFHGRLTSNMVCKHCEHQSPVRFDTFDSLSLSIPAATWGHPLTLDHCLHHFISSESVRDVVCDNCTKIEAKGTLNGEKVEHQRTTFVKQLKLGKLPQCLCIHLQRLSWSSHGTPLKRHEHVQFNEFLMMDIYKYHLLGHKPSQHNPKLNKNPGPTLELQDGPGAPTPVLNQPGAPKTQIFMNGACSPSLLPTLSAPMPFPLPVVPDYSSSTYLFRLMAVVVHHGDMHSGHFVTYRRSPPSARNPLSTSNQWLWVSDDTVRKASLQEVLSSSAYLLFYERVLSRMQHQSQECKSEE
- TEST_DETAILS: Ubiquitin-Rhodamine 110 Assay for USP30 Activity (USP30 biochemical assay)
- EXPERIMENTAL_CONTEXT: IC50 ranges; 0.4 nM enzyme, 25 nM Ub-Rh110, 30 min preincubation, test concentration 25 μM to 1.3 nM
pIC50: −log10 of the molar value.

Worked set:
- COMPOUND: "N#CN1CCN2CCN(c3cc(-c4ccccc4Oc4ccccc4)[nH]n3)C(=O)[C@@H]2C1 (single isomer, unassigned) [Compound 1-114S]"
  TGT: "human recombinant USP30 (Homo sapiens, UniProt Q70CQ3)"
  MEASURED_VALUE: "6.00 to 7.00"
- COMPOUND: "N#CN1CC[C@H]2CCN(c3ncc(C4CCCCC4)s3)C[C@H]2C1 (single isomer, unassigned)"
  TGT: "human recombinant USP30 (Homo sapiens, UniProt Q70CQ3)"
  MEASURED_VALUE: "5.00 to 6.00"
- COMPOUND: "N#Cc1cccc(-c2cnc(N3CCN4CCN(C#N)C[C@@H]4C3=O)nc2)c1 (single isomer, unassigned)"
  TGT: "human recombinant USP30 (Homo sapiens, UniProt Q70CQ3)"
  MEASURED_VALUE: "5.00 to 6.00"
- COMPOUND: "CC(C)(C)c1sc(N2CCN3CCN(C#N)C[C@@H]3C2=O)nc1Cl (single isomer, unassigned)"
  TGT: "human recombinant USP30 (Homo sapiens, UniProt Q70CQ3)"
  MEASURED_VALUE: "> 7.00"
- COMPOUND: "N#CN1CCN2CCN(c3ncc(-c4ccccc4)s3)C(=O)[C@@H]2C1 (single isomer, unassigned) [Compound 1-14S]"
  TGT: "human recombinant USP30 (Homo sapiens, UniProt Q70CQ3)"
  MEASURED_VALUE: "6.00 to 7.00"

Value sought for every listed compound: pIC50.
1. N#CN1CCN2CCN(c3cc(-c4cccc(Cl)c4)on3)C(=O)[C@@H]2C1 (single isomer, unassigned) [Compound 1-11S]
2. N#CN1CCN2CCN(c3ncc(C4CCCCC4)s3)C(=O)[C@H]2C1 (single isomer, unassigned)

1: < 4.60; 2: > 7.00

----------
- TGT: human recombinant USP30 (Homo sapiens, UniProt Q70CQ3)
- TEST_DETAILS: Ubiquitin-Rhodamine 110 Assay for USP30 Activity (USP30 biochemical assay)
- EXPERIMENTAL_CONTEXT: IC50 ranges; 0.4 nM enzyme, 25 nM Ub-Rh110, 30 min preincubation, test concentration 25 μM to 1.3 nM
ASSAY_METRIC: IC50

- MOLECULE: "CC(C)(C)c1sc(N2CC(=O)N3CCN(C#N)C[C@H]3C2=O)nc1Cl (single isomer, unassigned) [Compound 6-1S]"
  IC50: "< 100 nM"
- MOLECULE: "CC(C)(C)c1sc(N2CCN3CCN(C#N)C[C@@]3(F)C2=O)nc1Cl (single isomer, unassigned) [Compound 1-116R]"
  IC50: "1000 to 10000 nM"
- MOLECULE: "N#CN1CCN2CCN(c3ncc(N4CCCC[C@@H]4Cc4ccccc4)s3)C(=O)[C@H]2C1 (single isomer, unassigned) [1-118R,R]"
  IC50: "100 to 1000 nM"
- MOLECULE: "N#CN1CC(=O)N2CCN(c3ncc(C4CCCCC4)s3)C[C@H]2C1 (single isomer, unassigned) [Compound 3-1R]"
  IC50: "< 100 nM"
- MOLECULE: "CC(C)(C)c1sc(N2CC(=O)N3CCN(C#N)C[C@@H]3C2=O)nc1Cl (single isomer, unassigned) [Compound 6-1R]"
  IC50: "< 100 nM"

Value sought for every listed molecule: IC50.
1. N#CN1CCN2CCN(c3ncc(-c4ccccc4Oc4ccccc4)s3)C(=O)C2C1 (stereo in doubt) [Compound 1-113S]
2. N#CN1CC(=O)N2CCN(c3ncc(C4CCCCC4)s3)C[C@@H]2C1 (single isomer, unassigned) [Compound 3-1S]
3. N#CN1CCN2CCN(c3ncc(N4CCCC[C@H]4Cc4ccccc4)s3)C(=O)[C@H]2C1 (single isomer, unassigned) [1-118R,S]

< 100 nM
100 to 1000 nM
< 100 nM

----------
- TGT: human recombinant USP30 (Homo sapiens)
- Sequence (Q70CQ3 1-517): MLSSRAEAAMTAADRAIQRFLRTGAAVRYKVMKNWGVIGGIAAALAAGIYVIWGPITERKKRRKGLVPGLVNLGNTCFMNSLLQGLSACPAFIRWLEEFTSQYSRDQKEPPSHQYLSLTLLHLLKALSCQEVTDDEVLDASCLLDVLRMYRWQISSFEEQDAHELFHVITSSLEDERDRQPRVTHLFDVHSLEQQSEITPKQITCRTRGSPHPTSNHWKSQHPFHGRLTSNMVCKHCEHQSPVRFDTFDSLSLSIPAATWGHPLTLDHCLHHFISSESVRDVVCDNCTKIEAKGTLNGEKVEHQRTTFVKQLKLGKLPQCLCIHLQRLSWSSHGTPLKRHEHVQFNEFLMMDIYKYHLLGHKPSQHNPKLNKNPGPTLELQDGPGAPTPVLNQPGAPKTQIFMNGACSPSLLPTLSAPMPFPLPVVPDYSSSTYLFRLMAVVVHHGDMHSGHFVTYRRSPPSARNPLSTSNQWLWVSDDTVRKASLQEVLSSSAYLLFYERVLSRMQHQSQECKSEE
- TEST_DETAILS: Ubiquitin-Rhodamine 110 Assay for USP30 Activity (USP30 biochemical assay)
- EXPERIMENTAL_CONTEXT: IC50 ranges; 0.4 nM enzyme, 25 nM Ub-Rh110, 30 min preincubation, test concentration 25 μM to 1.3 nM
- From the text: Assay Example A: Description of Biochemical Assay: Ubiquitin-Rhodamine 110 Assay for USP30 Activity […] For all assay formats, data were reported as percent inhibition compared with control wells based on the following equation: % inh=1−((FLU−AveLow)/(AveHigh−AveLow)) where FLU=measured Fluorescence, AveLow=average Fluorescence of no enzyme control (n=32), and AveHigh=average Fluorescence of DMSO control (n=32). […]
Would you mind telling me the reported IC50 of each entry?

- MOLECULE: "N#CN1CC[C@H]2CCN(c3ncc(C4CCCCC4)s3)C(=O)[C@@H]2C1 (single isomer, unassigned) [1-12S,S]"
  IC50: "1 to 10 µM"
- MOLECULE: "N#CN1CCN2CCN(c3ncc(-c4ccccc4Oc4ccccc4)s3)C(=O)C2C1 (stereo in doubt) [Compound 1-113R]"
  IC50: "< 0.1 µM"
- MOLECULE: "N#CN1CCN2CCN(c3ncc(-c4cccc(Cl)c4)s3)C(=O)[C@H]2C1 (single isomer, unassigned) [Compound 1-7R]"
  IC50: "< 0.1 µM"

Value sought for every listed molecule: IC50.
1. C[C@]12CN(C#N)CCN1CCN(c1ncc(C3CCCCC3)s1)C2=O (single isomer, unassigned) [Compound 1-117R]
2. N#CN1CCN2CCN(c3ncc(N4CCCC[C@@H]4Cc4ccccc4)s3)C(=O)[C@@H]2C1 (single isomer, unassigned) [1-118S,R]

1. < 0.1 µM
2. 0.1 to 1 µM
